molecular target: HSA (Homo sapiens); test: Determination of dissociation constant with HSA (fluorescence titration, one-site model); conditions: HSA 10 μM, one-site specific binding model
Sequence (P02768 25-609): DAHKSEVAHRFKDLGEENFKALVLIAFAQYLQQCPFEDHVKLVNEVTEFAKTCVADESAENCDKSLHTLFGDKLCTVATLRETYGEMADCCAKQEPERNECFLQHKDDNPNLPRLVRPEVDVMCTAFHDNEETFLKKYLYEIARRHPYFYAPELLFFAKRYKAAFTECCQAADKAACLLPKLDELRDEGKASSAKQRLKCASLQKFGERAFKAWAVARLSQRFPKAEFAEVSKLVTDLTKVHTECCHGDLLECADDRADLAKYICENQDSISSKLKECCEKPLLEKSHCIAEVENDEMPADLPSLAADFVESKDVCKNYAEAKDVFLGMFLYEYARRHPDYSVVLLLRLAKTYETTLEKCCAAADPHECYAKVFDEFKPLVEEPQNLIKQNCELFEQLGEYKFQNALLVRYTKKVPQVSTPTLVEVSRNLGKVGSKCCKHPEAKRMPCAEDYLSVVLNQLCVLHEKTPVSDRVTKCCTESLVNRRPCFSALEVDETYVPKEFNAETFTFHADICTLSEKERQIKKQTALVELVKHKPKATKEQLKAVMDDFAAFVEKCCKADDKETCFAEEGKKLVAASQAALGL
test-readout: Kd (µM)
Numbers only; they are read as µM.

GET /values?readout=Kd&item= Nc1ccc(C2=C3C=CC(N4CCCCC4)=[N+]3[B-](F)(F)n3c2ccc3-n2cc(-c3ccccc3)nn2)cc1 [BDC-9]
12.7

###

assay: Quantum yield measurements versus Acridine Yellow in EtOH; type: physicochemical; settings: MKCA compound library; quantum yield
What φ (%) was measured for each of the following?
The reply should be a number in %, with the unit left off.

Which φ (%) reading was recorded for the molecule "COc1ccc(OC)c(CNC2=[N+]3C(=C(c4ccc(NC(=O)CCl)cc4)c4ccc(-n5cc(CC6CCCCC6)nn5)n4[B-]3(F)F)C=C2)c1" ?
20.56

Repeat for the following molecule: "Cc1ccccc1CNC1=[N+]2C(=C(c3ccc(NC(=O)CCl)cc3)c3ccc(-n4cc(CN(C)Cc5ccccc5)nn4)n3[B-]2(F)F)C=C1"
21.53

"CCOc1ccccc1CNC1=[N+]2C(=C(c3ccc(NC(=O)CCl)cc3)c3ccc(-n4cc(CC5CCCCC5)nn4)n3[B-]2(F)F)C=C1" , same question.
37.77

###

test: Absorbance and fluorescence emission spectra (SpectraMax M2); type: physicochemical; conditions: BDCCA library, Table 4
test-readout: λmax Absorp. (nm)
Note: unit nm is implicit; provide only the numeric part.

What value of λmax Absorp. has been reported for the following molecule? "O=C(CCl)Nc1ccc(C2=C3C=CC(N4CCCCC4)=[N+]3[B-](F)(F)n3c2ccc3-n2cc(-c3ccccc3)nn2)cc1"
464

Now consider "COc1cc(OC)cc(-c2cn(-c3ccc4n3[B-](F)(F)[N+]3=C(N5CCCCC5)C=CC3=C4c3ccc(NC(=O)CCl)cc3)nn2)c1" .
463

Try this molecule too: "O=C(CCl)Nc1ccc(C2=C3C=CC(N4CCCCC4)=[N+]3[B-](F)(F)n3c2ccc3-n2cc(C3CCCC3)nn2)cc1"
468

One more molecule: "O=C(CCl)Nc1ccc(C2=C3C=CC(N4CCCCC4)=[N+]3[B-](F)(F)n3c2ccc3-n2cc(-c3cccc(F)c3)nn2)cc1"
462

Same thing, different molecule: "CC(C)CCc1cn(-c2ccc3n2[B-](F)(F)[N+]2=C(N4CCCCC4)C=CC2=C3c2ccc(NC(=O)CCl)cc2)nn1"
467

And what about the molecule "O=C(CCl)Nc1ccc(C2=C3C=CC(N4CCCCC4)=[N+]3[B-](F)(F)n3c2ccc3-n2cc(CO)nn2)cc1" ?
465

###

Assignment: determine reported λmax Emission for the given molecules.
assay: Absorbance and fluorescence emission spectra (SpectraMax M2); assay type: physicochemical; conditions: MK library, Table 5
Report the figure along with its unit, number first.

Reported λmax Emission for CC1CN(C2=[N+]3C(=C(c4ccc(N)cc4)c4ccc(-n5cc(C6CCCC6)nn5)n4[B-]3(F)F)C=C2)CC(C)O1 (centres unmarked) : what is it?
580 nm

Same again, this time with "CC(C)Cc1cn(-c2ccc3n2[B-](F)(F)[N+]2=C(N(C)Cc4ccccc4)C=CC2=C3c2ccc(N)cc2)nn1"
571 nm

Queued: "Cc1ccccc1CNC1=[N+]2C(=C(c3ccc(N)cc3)c3ccc(-n4cc(CN(C)Cc5ccccc5)nn4)n3[B-]2(F)F)C=C1"
563 nm

Same thing, different molecule: "CN(Cc1ccccc1)C1=[N+]2C(=C(c3ccc(N)cc3)c3ccc(-n4cc(CO)nn4)n3[B-]2(F)F)C=C1"
592 nm

Another molecule: "COc1ccc(OC)c(CNC2=[N+]3C(=C(c4ccc(N)cc4)c4ccc(-n5cc(CC(C)C)nn5)n4[B-]3(F)F)C=C2)c1"
566 nm

Another molecule to look at: "CCCc1cn(-c2ccc3n2[B-](F)(F)[N+]2=C(NCc4cc(OC)ccc4OC)C=CC2=C3c2ccc(N)cc2)nn1"
563 nm

"CCOc1ccccc1CNC1=[N+]2C(=C(c3ccc(N)cc3)c3ccc(-n4cc(CO)nn4)n3[B-]2(F)F)C=C1" , same question.
562 nm

Please answer likewise for CCCCCC(O)c1cn(-c2ccc3n2[B-](F)(F)[N+]2=C(NCc4ccccc4C)C=CC2=C3c2ccc(N)cc2)nn1 (centres unmarked)
563 nm

And the next one, "COc1ccc(OC)c(CNC2=[N+]3C(=C(c4ccc(N)cc4)c4ccc(-n5cc(CO)nn5)n4[B-]3(F)F)C=C2)c1" ?
568 nm

Try the molecule CCCCCC(O)c1cn(-c2ccc3n2[B-](F)(F)[N+]2=C(N4CC(C)OC(C)C4)C=CC2=C3c2ccc(N)cc2)nn1 (centres unmarked)
586 nm

How about "CCCc1cn(-c2ccc3n2[B-](F)(F)[N+]2=C(N(C)Cc4ccccc4)C=CC2=C3c2ccc(N)cc2)nn1" ?
584 nm

What do you get for CCCC(C)c1cn(-c2ccc3n2[B-](F)(F)[N+]2=C(N4CCc5ccccc5C4)C=CC2=C3c2ccc(N)cc2)nn1 (centres unmarked) ?
579 nm

Similarly, CCCc1cn(-c2ccc3n2[B-](F)(F)[N+]2=C(N4CC(C)OC(C)C4)C=CC2=C3c2ccc(N)cc2)nn1 (centres unmarked) ?
580 nm

And for "CN(Cc1ccccc1)C1=[N+]2C(=C(c3ccc(N)cc3)c3ccc(-n4cc(CC5CCCCC5)nn4)n3[B-]2(F)F)C=C1" ?
579 nm
